B1: RAD54B (parent)
chain: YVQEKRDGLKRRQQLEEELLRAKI

Variants of: B1
Assay: protein stability index of a GFP-peptide fusion (GPS, HEK-293T) (PSI 1-6); higher = more stable;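 further: lentivirally expressed fusions sorted by FACS into six bins by GFP to DsRed ratio, PSI derived from sequencing read proportions per bin multiplied by bin number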
Details: c terminus: a fixed tail appended
PROPERTY: protein stability index
Give bare numbers.

E18K: 1.95
E16A: 1.98
R12Y: 2.01
A22P: 1.68
K5A: 1.96
L20T: 1.82
L19Q: 1.78
K23P: 2.63
E4I: 1.35
Q3W: 2.43

For each listed entry, give its protein stability index.
1. G8F
2. I24D

[2.27, 2.73]

For each listed entry, give its protein stability index.
1. K23E
2. K23Y
3. E18L
4. Y1K
5. Q14P
6. Q13A
7. K10R

1: 1.71; 2: 1.49; 3: 1.55; 4: 3.74; 5: 1.99; 6: 2.23; 7: 1.98
